- targetSystem: Hexose transporter 1 (Plasmodium falciparum) (UniProt O97467)
- assayNotes: ST_JUDE_LEISH: Cytotoxicity at 2uM final concentration against transgenic Leishmania Mexicana promastigotes LmPfHT that are glucose transport deficient and complemented with the Plasmodium falciparum hexose transporter. Activity is measured by DNA content using SYBR green in vitro
- Assay type: functional
propertyLabel: inhibition (%)

- compound: "c1cncc(CN2CCN(Cc3ccc(-c4ccc(-c5nc6ccccc6[nH]5)s4)cc3)CC2)c1"
  measureUnit: "%"
  valueMeasured: 7.69
- compound: "COc1ccc2nccc([C@@H](O)CN3CCC(NCc4cc5cccc(OC)c5o4)CC3)c2c1"
  measureUnit: "%"
  valueMeasured: 3.57
- compound: "C=CCN1Cc2c(O)cccc2C(c2ccc(O)c(O)c2)C1 (centres undefined)"
  measureUnit: "%"
  valueMeasured: 5.18
- compound: "CC12CCC(CN(CC(O)Cn3c4ccccc4c4cc(I)ccc43)C1)C2(C)C (centres undefined)"
  measureUnit: "%"
  valueMeasured: 2.5
- compound: "Cc1ccccc1CNc1ccc2nc(N)nc(N)c2c1"
  measureUnit: "%"
  valueMeasured: 2.12
- compound: "c1ccc2c(NCCCCCCCCCNc3ccnc4ccccc34)ccnc2c1"
  measureUnit: "%"
  valueMeasured: 4.91
- compound: "Nc1nc2c(ncn2COC(COCc2ccccc2)COCc2ccccc2)c(=O)[nH]1.Nc1nc2ncn(COC(COCc3ccccc3)COCc3ccccc3)c2c(=O)[nH]1"
  measureUnit: "%"
  valueMeasured: -2
- compound: "O=C(/C=C/c1ccc(Cl)c(Cl)c1)NCCCCCN1CCCN(C(=O)Nc2cc(F)cc(F)c2)CC1"
  measureUnit: "%"
  valueMeasured: 8.04
- compound: "CS(=O)(=O)c1ccc(CCNCc2ccc(-c3ccc(CNC4Cc5ccccc5C4)cc3)nc2)cc1"
  measureUnit: "%"
  valueMeasured: -0.45

====

- targetSystem: Hexose transporter 1 (Plasmodium falciparum)
- assayNotes: ST_JUDE_LEISH: Cytotoxicity at 2uM final concentration against transgenic Leishmania Mexicana promastigotes LmPfHT that are glucose transport deficient and complemented with the Plasmodium falciparum hexose transporter. Activity is measured by DNA content using SYBR green in vitro
- Assay type: functional

- molecule: "COc1ccc(NC(=O)Nc2ccc(C)c(-c3ccc(C(=O)Nc4ccncc4)cc3)c2)cc1"
  measureUnit: "%"
  inhibition: 1.45
- molecule: "Cc1cccc2nc(-c3ccc(-c4ccc(CNCC5CCCO5)cc4)cc3)[nH]c12 (centres undefined)"
  measureUnit: "%"
  inhibition: 14.9
- molecule: "COc1ccc(CN2CCC(Oc3cccc(NC(=O)c4ccc(C(F)(F)F)cc4)c3)CC2)cc1"
  measureUnit: "%"
  inhibition: 1.18
- molecule: "COc1ccc(F)cc1-c1ccccc1CNC(=O)c1cnn(-c2ccc([N+](=O)[O-])cc2)c1C(F)(F)F"
  measureUnit: "%"
  inhibition: 2.84
- molecule: "COc1ccccc1CN1CCC(NC(=O)c2ccc(-c3cccc(C(F)(F)F)c3)s2)CC1"
  measureUnit: "%"
  inhibition: 4.38
- molecule: "CCNc1cc(C(=O)N[C@@H](Cc2ccccc2)[C@H](O)CNCCc2cccc3ccccc23)cc(N2CCCC2=O)c1"
  measureUnit: "%"
  inhibition: -0.02
- molecule: "CCc1cc(Br)c(CNCCCNc2cc(=O)c3ccccc3[nH]2)s1"
  measureUnit: "%"
  inhibition: -0.52
- molecule: "Cc1[nH]c(C)c(-c2ccc(OCc3cc(C(F)(F)F)cc(C(F)(F)F)c3)nc2)c(=O)c1Br"
  measureUnit: "%"
  inhibition: 10.2
- molecule: "N#CCOc1c(C2CCN(CCCCNC(=O)c3ccc(-c4ccc(C(F)(F)F)cc4)cc3)CC2)ccc2c1CCCC2"
  measureUnit: "%"
  inhibition: 3.28
- molecule: "CCCN(CCC)S(=O)(=O)c1ccc(C(=O)Nc2nc3ccc(-c4cc(=O)[nH]c(Nc5ccccc5Cl)n4)cc3[nH]2)cc1"
  measureUnit: "%"
  inhibition: 5.1
- molecule: "CN1CCCC(CN2CCN(Cc3ccc(-c4cccc(-c5nc6ccccc6[nH]5)c4)cc3)CC2)C1 (centres undefined)"
  measureUnit: "%"
  inhibition: 2.47
- molecule: "O=C(NC(=S)NCc1ccncc1)c1ccccc1"
  measureUnit: "%"
  inhibition: -1.93
- molecule: "CN(Cc1cc(C(F)(F)F)cc(C(F)(F)F)c1)C(=O)C(Cc1ccc(F)cc1)C1CCCNC1 (centres undefined)"
  measureUnit: "%"
  inhibition: 4.23
- molecule: "O=C(/C=C/c1ccc(Cl)c(Cl)c1)N1CCC(CN2CCC(Cc3cc4ccccc4[nH]3)CC2)CC1"
  measureUnit: "%"
  inhibition: 2.49
- molecule: "CCCN1CCN(CC(O)CNC(=O)Nc2ccc(Br)cc2)CC1 (centres undefined)"
  measureUnit: "%"
  inhibition: 4.03
- molecule: "CCN(CC)CCCNc1cc[n+]([O-])c2cc3ccccc3cc12"
  measureUnit: "%"
  inhibition: -2.45
- molecule: "CCc1ccc(CN2CCC(CNC(=O)c3cc(-c4cccc(F)c4)cs3)C2)cc1 (centres undefined)"
  measureUnit: "%"
  inhibition: 1.94
- molecule: "Cc1cc2nc(-c3ccc(OCC(=O)NCc4cccc(C(F)(F)F)c4)cc3)[nH]c2cc1C"
  measureUnit: "%"
  inhibition: -1.2
- molecule: "O=C(O)CCCN1CCCC(=C(c2ccccc2)c2ccccc2)C1"
  measureUnit: "%"
  inhibition: 3.64
